Hello, the source for this data is patent US8937091B2, in case you need it.

- Tested on: IICR (IP3 induced calcium release) in CHO cells
- PROTOCOL TEXT: Assay of IICR (IP3 induced calcium release)-inhibiting action
- Type: cell-based, Chinese hamster
- MEASUREMENT CONTEXT: Cricetulus griseus, CHO, test compound 10 μmol; CHO cells, 10 μM ATP; read-out: IICR level (percentage of inhibition)
Exercise: for every item that follows, state its recorded inhibition at 10 µM.

Below, 8 compounds whose answers are already recorded.
Cc1cc(C(=O)CCN(Cc2ccccc2)C(C)C)c(C)o1
0%
O=C(CCCCl)c1ccncc1
0%
O=C(CCNCCCCNCCC(=O)c1cnccn1)c1cnccn1
0%
CC(C)(C)N(CCC(=O)c1ccc(Cl)s1)Cc1ccccc1
50%
N#Cc1ccc(C(=O)CCNCCSSCCNCCC(=O)c2ccc(C#N)cc2)cc1
1%
CN(CCO)CCC(=O)c1ccccn1
0%
CCN(CCO)CCC(=O)c1ccc(Br)s1
0%
CC(C)(C)N(CCC(=O)c1cc2ccccc2s1)Cc1ccccc1
50%

For every record below, what is its inhibition at 10 µM?
1. CC(C)(C)N(CCO)CCC(=O)c1cccs1
2. O=C(CCN(CCO)CCO)c1ccc(Br)s1

["10%", "30%"]

* * *

- System: IICR (IP3 induced calcium release) in CHO cells
- PROTOCOL TEXT: Assay of IICR (IP3 induced calcium release)-inhibiting action
- Format: cell-based, Chinese hamster
- MEASUREMENT CONTEXT: Cricetulus griseus, CHO, test compound 10 μmol; CHO cells, 10 μM ATP; read-out: IICR level (percentage of inhibition)
MEASUREMENT NAME: inhibition at 10 µM (%)
One number for each entry, in %.

Below, 4 compounds whose answers are already recorded.
Cc1cc(C(=O)CCN(Cc2ccccc2)C(C)C)oc1C [Example 225]
20
CC(C)(C)N(CCC(=O)c1ncccc1Br)Cc1ccccc1 [Example 408]
76
Cc1ccc(C(=O)CCN(CCO)Cc2ccccc2)o1 [Example 139]
20
CC(CN(Cc1ccccc1)C(C)(C)C)C(=O)c1ccc(F)cc1 (centres unmarked) [Example 162]
0

Continue with the compound presented below.
Tell me the measured inhibition at 10 µM of O=C(CCNC(CO)Cc1ccccc1)c1ccc(Br)s1 (centres unmarked) [Example 357] , please.
0

* * *

- Test system: IICR (IP3 induced calcium release) in CHO cells
- PROTOCOL TEXT: Assay of IICR (IP3 induced calcium release)-inhibiting action
- Type: cell-based, Chinese hamster
- MEASUREMENT CONTEXT: Cricetulus griseus, CHO, test compound 10 μmol; CHO cells, 10 μM ATP; read-out: IICR level (percentage of inhibition)
MEASUREMENT NAME: inhibition at 10 µM (%)
Give bare numbers, in %.

Below, 4 molecules whose answers are already recorded.
CC(C)N(CCC(=O)c1ccsc1)Cc1ccccc1
0
O=C(CCNCCS)c1ccc(Oc2ccccc2)cc1
20
O=C(CCN(CCO)CCO)c1cnccn1
0
CCCCN(CCC(=O)c1ccc(Br)s1)c1ccccc1
50

For every record below, what is its inhibition at 10 µM?
1. Cc1cc(C(=O)CCN(CCO)Cc2ccccc2)oc1C
2. Cc1csc(C(=O)CCN(Cc2ccccc2)Cc2ccccc2)c1
3. O=C(CCN(CCO)Cc1ccccc1)c1ccc(Cl)s1
4. CC(C)(C)N(CCO)CCC(=O)c1cccnc1

1: 20; 2: 10; 3: 0; 4: 0

For every record below, what is its inhibition at 10 µM?
1. CC(C)(C)N(CCC(=O)c1cccnc1)Cc1ccccc1
2. CC(C)(C)N(CCC(=O)c1ccc2c(c1)OCCO2)Cc1ccccc1

[20, 90]
